# Test system: Escherichia coli ATCC 25922
# protocol.details: MIC, broth microdilution (CLSI), reference strain
# test.conditions: CAMHB
Square brackets hold non-standard residues; d marks the D form. Peptide text beside a SMILES is read from it. * marks the point of attachment. Phe(3-CONH2) = NC(=O)c1cccc(C[C@H](N)C(=O)O)c1; Phe(4-CN) = N#Cc1ccc(C[C@H](N)C(=O)O)cc1; Phe(4-Cl) = N[C@@H](Cc1ccc(Cl)cc1)C(=O)O; Phe(3-F) = N[C@@H](Cc1cccc(F)c1)C(=O)O; Dab(3S-OH) = NC[C@H](O)[C@H](N)C(=O)O; Met(O) = CS(=O)CC[C@H](N)C(=O)O; ΔZArg = N=C(N)NCC/C=C(\N)C(=O)O; NMeK = CN[C@@H](CCCCN)C(=O)O; dOrn = NCCC[C@@H](N)C(=O)O; Orn = NCCC[C@H](N)C(=O)O; Aze = O=C(O)[C@@H]1CCN1; Dab = NCC[C@H](N)C(=O)O; NH(CH2)4NH2 = NCCCCN*
experimental.endpoint: Ec: MIC Escherichia coli ATCC 25922

1) C[C@H](NC(=O)[C@@H](NC(=O)[C@@H](N)CCCCN)[C@@H](O)CN)C(=O)NCC(=O)N[C@H](CCCN)C(=O)N1CC[C@H]1C(=O)N[C@@H](Cc1ccc(Cl)cc1)C(=O)N[C@@H](CCCCN)C(=O)N/C(=C\CCNC(=N)N)C(=O)O [24.72] (H-K[Dab(3S-OH)]AG[dOrn][Aze][Phe(4-Cl)]K[ΔZArg]-OH) : + (≤32 μg/mL)
2) C[C@H](NC(=O)[C@H](CCN)NC(=O)[C@@H](N)CCCCN)C(=O)NCC(=O)N[C@H](CCCN)C(=O)N1CCC[C@H]1C(=O)N[C@@H](Cc1cnc[nH]1)C(=O)N[C@@H](CCCCN)C(=O)N[C@H](CCCNC(=N)N)C(=O)N[C@@H](CCCCN)C(=O)NCCCCN [14.24] (H-K[Dab]AG[dOrn]PHK[dR]K-{NH(CH2)4NH2}) : − (>32 μg/mL)
3) N=C(N)NCC/C=C(\NC(=O)[C@H](CCCCN)NC(=O)[C@H](Cc1cnc[nH]1)NC(=O)[C@@H]1CCCN1C(=O)[C@@H](CCCN)NC(=O)CNC(=O)[C@H](Cc1cnc[nH]1)NC(=O)[C@@H](NC(=O)[C@@H](N)CCCCN)[C@@H](O)CN)C(=O)O [214.2] (H-K[Dab(3S-OH)]HG[dOrn]PHK[ΔZArg]-OH) : − (>32 μg/mL)
4) N=C(N)NCC/C=C(\NC(=O)[C@H](CCCCN)NC(=O)[C@H](Cc1cccc(C(N)=O)c1)NC(=O)[C@@H]1CCCN1C(=O)[C@@H](CCCN)NC(=O)CNC(=O)[C@H](CCCN)NC(=O)[C@@H](NC(=O)[C@@H](N)CCCCN)[C@@H](O)CN)C(=O)O [211.3] (H-K[Dab(3S-OH)][Orn]G[dOrn]P[Phe(3-CONH2)]K[ΔZArg]-OH) : ++ (≤8 μg/mL)
5) N#Cc1ccc(C[C@H](NC(=O)[C@@H]2CCCN2C(=O)[C@@H](CCCN)NC(=O)CNC(=O)[C@H](CCCN)NC(=O)[C@@H](NC(=O)[C@@H](N)CCCCN)[C@@H](O)CN)C(=O)N[C@@H](CCCCN)C(=O)N/C(=C\CCNC(=N)N)C(=O)O)cc1 [211.6] (H-K[Dab(3S-OH)][Orn]G[dOrn]P[Phe(4-CN)]K[ΔZArg]-OH) : ++ (≤8 μg/mL)

Tell me the measured Ec: MIC Escherichia coli ATCC 25922 of N=C(N)NCCC[C@@H](NC(=O)[C@H](CCCCN)NC(=O)[C@H](Cc1cnc[nH]1)NC(=O)[C@@H]1CCCN1C(=O)[C@@H](CCCN)NC(=O)CNC(=O)[C@@H](NC(=O)[C@@H](NC(=O)[C@@H](N)CCCCN)[C@@H](O)CN)[C@@H](O)CN)C(=O)N[C@@H](CCCCN)C(=O)NCCCCN [22.5] (H-K[Dab(3S-OH)][Dab(3S-OH)]G[dOrn]PHK[dR]K-{NH(CH2)4NH2}) , please.
+ (≤32 μg/mL)

Tell me the measured Ec: MIC Escherichia coli ATCC 25922 of C[C@H](NC(=O)/C(=C/CCNC(=N)N)NC(=O)[C@H](CCCCN)NC(=O)[C@H](Cc1cnc[nH]1)NC(=O)[C@@H]1CCCN1C(=O)[C@@H](CCCN)NC(=O)CNC(=O)[C@@H](NC(=O)[C@@H](NC(=O)[C@@H](N)CCCCN)[C@@H](O)CN)[C@@H](O)CN)C(=O)NCCCCN [22.10] (H-K[Dab(3S-OH)][Dab(3S-OH)]G[dOrn]PHK[ΔZArg]A-{NH(CH2)4NH2}) , please.
++ (≤8 μg/mL)

Tell me the measured Ec: MIC Escherichia coli ATCC 25922 of C[C@H](NC(=O)[C@@H](NC(=O)[C@@H](N)CCCCN)[C@@H](O)CN)C(=O)NCC(=O)N[C@H](CCCN)C(=O)N1CCC[C@H]1C(=O)N[C@H](C(=O)N[C@@H](CCCCN)C(=O)N/C(=C\CCNC(=N)N)C(=O)O)[C@@H](C)O [24.137] (H-K[Dab(3S-OH)]AG[dOrn]PTK[ΔZArg]-OH) , please.
− (>32 μg/mL)

Tell me the measured Ec: MIC Escherichia coli ATCC 25922 of CN[C@@H](CCCCN)C(=O)N[C@H](C(=O)N[C@@H](C)C(=O)NCC(=O)N[C@H](CCCN)C(=O)N1CCC[C@H]1C(=O)N[C@@H](Cc1cnc[nH]1)C(=O)N[C@@H](CCCCN)C(=O)N/C(=C\CCNC(=N)N)C(N)=O)[C@@H](O)CN [24.63] (H-[NMeK][Dab(3S-OH)]AG[dOrn]PHK[ΔZArg]-NH2) , please.
++ (≤8 μg/mL)

Tell me the measured Ec: MIC Escherichia coli ATCC 25922 of C[C@H](NC(=O)[C@@H](NC(=O)[C@@H](N)CCCCN)[C@@H](O)CN)C(=O)NCC(=O)N[C@H](CCCN)C(=O)N1CCC[C@H]1C(=O)N[C@@H](CC[S+](C)[O-])C(=O)N[C@@H](CCCCN)C(=O)N/C(=C\CCNC(=N)N)C(=O)O (stereo partly drawn) [24.132] (H-K[Dab(3S-OH)]AG[dOrn]P[Met(O)]K[ΔZArg]-OH) , please.
− (>32 μg/mL)

Tell me the measured Ec: MIC Escherichia coli ATCC 25922 of CC[C@H](C)[C@H](NC(=O)[C@@H](NC(=O)[C@@H](N)CCCCN)[C@@H](O)CN)C(=O)NCC(=O)N[C@H](CCCN)C(=O)N1CCC[C@H]1C(=O)N[C@@H](Cc1cnc[nH]1)C(=O)N[C@@H](CCCCN)C(=O)N/C(=C\CCNC(=N)N)C(=O)N[C@@H](CCCCN)C(=O)NCCCCN [27.1] (H-K[Dab(3S-OH)]IG[dOrn]PHK[ΔZArg]K-{NH(CH2)4NH2}) , please.
++ (≤8 μg/mL)

Tell me the measured Ec: MIC Escherichia coli ATCC 25922 of C[C@H](NC(=O)[C@@H](NC(=O)[C@@H](N)CCCCN)[C@@H](O)CN)C(=O)NCC(=O)N[C@H](CCCN)C(=O)N1CCC[C@H]1C(=O)N[C@@H](Cc1cccc(F)c1)C(=O)N[C@@H](CCCCN)C(=O)N/C(=C\CCNC(=N)N)C(=O)O [24.152] (H-K[Dab(3S-OH)]AG[dOrn]P[Phe(3-F)]K[ΔZArg]-OH) , please.
++ (≤8 μg/mL)
